ASSAYED TARGET: HCV-NS5b (Hepatitis C virus genotype 1b, UniProt Q9WMX2)
Construct: (His)6 (C); made in house; host or cells: XL-1 cells (E. coli), IPTG-inducible plasmid
ASSAY METHOD TEXT: HCV-NS5b enzyme assay using homopolymer substrate
Assay type: biochemical
SETUP CONDITIONS: homopolymer substrate, [3H]-UTP incorporation, 30° C., 90 minutes; read-out: IC50
Experimental: The coding sequence of NS5b protein was cloned by PCR from pFKI389luc/NS3-3′/ET as described by Lohmann, V., et al. (1999) Science 285, 110-113 using the primers shown on page 266 of WO 2005/012288 The cloned fragment is missing the C terminus 21 amino acid residues. […] The polymerase activity was assayed by measuring incorporation of radiolabeled UTP into a RNA product using a biotinylated, homopolymeric template. […] Incorporation of radioactivity was determined by scintillation counting. […]
REPORTED METRIC: IC50

molecule="CC1CCCN(Cc2cn3c4c(cccc24)-c2c(C4CCCCC4)c4ccc(C(=O)O)cc4n2CCC3)C1 (stereo not shown) [Compound 130]" experimental_value="0.111 µM"
molecule="O=C(O)c1ccc2c(C3CCCCC3)c3n(c2c1)CCCn1cc(CN2CCCCO2)c2cccc-3c21 [Compound 116]" experimental_value="0.138 µM"
molecule="O=C(O)c1ccc2c(C3CCCCC3)c3n(c2c1)CCCn1cc(CNC2CCCCC2)c2cccc-3c21 [Compound 378]" experimental_value="0.199 µM"
molecule="COc1ccc2c3c1c(CN1CCN(C)CC1)cn3CCCn1c-2c(C2CCCCC2)c2ccc(C(=O)O)cc21 [Compound 469]" experimental_value="0.662 µM"
molecule="O=C(O)c1ccc2c(C3CCCCC3)c3n(c2c1)CCCn1cc(CN2CCCCC2)c2cccc-3c21 [Compound 119]" experimental_value="0.114 µM"
molecule="CN(C)S(=O)(=O)NC(=O)c1ccc2c(C3CCCCC3)c3n(c2c1)CCCn1cc(CN2CCCCC2)c2cccc-3c21 [Compound 375]" experimental_value="0.177 µM"
molecule="O=C(O)c1ccc2c(C3CCCCC3)c3n(c2c1)CCCn1cc(CN2CCS(=O)(=O)CC2)c2cccc-3c21 [Compound 394]" experimental_value="0.159 µM"

----------
ASSAYED TARGET: HCV-NS5b (Hepatitis C virus genotype 1b, UniProt Q9WMX2)
Construct: (His)6 (C); made in house; host or cells: XL-1 cells (E. coli), IPTG-inducible plasmid
ASSAY METHOD TEXT: HCV-NS5b enzyme assay using homopolymer substrate
Format: biochemical
SETUP CONDITIONS: homopolymer substrate, [3H]-UTP incorporation, 30° C., 90 minutes; read-out: IC50
pIC50: −log10 of the molar value.
Let's look at some compounds and their measured pIC50.
REPORTED METRIC: pIC50

molecule_smiles=CCN(CC)CCc1cn2c3c(cccc13)-c1c(C3CCCCC3)c3ccc(C(=O)O)cc3n1CCC2 reported_metric=pIC50 experimental_value=6.49
molecule_smiles=O=C(O)c1ccc2c(C3CCCCC3)c3n(c2c1)CCCn1cc(CN2CCC2)c2cccc-3c21 reported_metric=pIC50 experimental_value=7.08
molecule_smiles=O=C(O)c1ccc2c(C3CCCCC3)c3n(c2c1)CCCCn1cc(CN2CCCCC2)c2cccc-3c21 reported_metric=pIC50 experimental_value=6.88
molecule_smiles=O=C(O)c1ccc2c(C3CCCCC3)c3n(c2c1)CCCn1cc(CN2CCC(F)(F)CC2)c2cccc-3c21 reported_metric=pIC50 experimental_value=6.54

----------
# pIC50 listing for each entry below
ASSAYED TARGET: HCV-NS5b (Hepatitis C virus genotype 1b)
Construct: (His)6 (C); made in house; host or cells: XL-1 cells (E. coli), IPTG-inducible plasmid
ASSAY METHOD TEXT: HCV-NS5b enzyme assay using homopolymer substrate
Type: biochemical
SETUP CONDITIONS: homopolymer substrate, [3H]-UTP incorporation, 30° C., 90 minutes; read-out: IC50
pIC50: −log10 of the molar value.
REPORTED METRIC: pIC50

molecule="O=C(O)c1ccc2c(C3CCCCC3)c3n(c2c1)CC(CO)Cn1ccc2cccc-3c21 (racemic)" experimental_value=6.55
molecule=CS(=O)(=O)CCNCc1cn2c3c(cccc13)-c1c(C3CCCCC3)c3ccc(C(=O)O)cc3n1CCC2 experimental_value=6.68
molecule=CN1CCC(c2cn3c4c(cccc24)-c2c(C4CCCCC4)c4ccc(C(=O)O)cc4n2CCC3)CC1 experimental_value=6.66
molecule=CNC(=O)c1cc2cccc3c2n1CCCn1c-3c(C2CCCCC2)c2ccc(C(=O)O)cc21 experimental_value=7.00
molecule=O=C(O)c1ccc2c(C3CCCCC3)c3n(c2c1)CCn1cc(CCN2CCCCC2)c2cccc-3c21 experimental_value=7.01
molecule=CN1CCN(Cc2cn3c4c(cccc24)-c2c(C4CCCCC4)c4ccc(C(=O)O)cc4n2CCC3)CC1 experimental_value=7.17
molecule=COCCNCc1cn2c3c(cccc13)-c1c(C3CCCCC3)c3ccc(C(=O)O)cc3n1CCC2 experimental_value=6.93
molecule=O=C(O)c1ccc2c(C3CCCCC3)c3n(c2c1)CCCn1cc(CNC2CCCC2)c2cccc-3c21 experimental_value=6.96

----------
ASSAYED TARGET: HCV-NS5b (Hepatitis C virus genotype 1b, UniProt Q9WMX2)
Construct: (His)6 (C); made in house; host or cells: XL-1 cells (E. coli), IPTG-inducible plasmid
ASSAY METHOD TEXT: HCV-NS5b enzyme assay using homopolymer substrate
Assay type: biochemical
SETUP CONDITIONS: homopolymer substrate, [3H]-UTP incorporation, 30° C., 90 minutes; read-out: IC50
Some compounds, each annotated with its measured IC50.
REPORTED METRIC: IC50 (nM)

compound="COC1CCCN(Cc2cn3c4c(cccc24)-c2c(C4CCCCC4)c4ccc(C(=O)O)cc4n2CCC3)C1 (stereo not drawn)" unit_info=nM experimental_value=114
compound=C=C1Cn2cc(CN3CCCCC3)c3cccc(c32)-c2c(C3CCCCC3)c3ccc(C(=O)O)cc3n2C1 unit_info=nM experimental_value=135
compound=O=C(O)c1ccc2c(C3CCCCC3)c3n(c2c1)CC1(CC1)Cn1cc(CN2CCCCC2)c2cccc-3c21 unit_info=nM experimental_value=121
compound=O=C(O)c1ccc2c(C3CCCCC3)c3n(c2c1)CCCn1c2c(c4cccc-3c41)CN(C1CCCCC1)C2=O unit_info=nM experimental_value=472
compound=CN(C)C(=O)CNCc1cn2c3c(cccc13)-c1c(C3CCCCC3)c3ccc(C(=O)O)cc3n1CCC2 unit_info=nM experimental_value=171
compound=O=C(O)c1ccc2c(C3CCCCC3)c3n(c2c1)CCCn1cc(CNC2CCC2)c2cccc-3c21 unit_info=nM experimental_value=85
compound=COc1ccc2c3c1c(CNC(C)C)cn3CCCn1c-2c(C2CCCCC2)c2ccc(C(=O)O)cc21 unit_info=nM experimental_value=2060
compound=O=C(O)c1ccc2c(C3CCCCC3)c3n(c2c1)CCCn1ccc2cc(F)cc-3c21 unit_info=nM experimental_value=85
compound=COC1CCN(Cc2cn3c4c(cccc24)-c2c(C4CCCCC4)c4ccc(C(=O)O)cc4n2CCC3)CC1 unit_info=nM experimental_value=87
compound=O=C(O)c1ccc2c(C3CCCCC3)c3n(c2c1)CCCn1cc(CN2CCC(O)CC2)c2cccc-3c21 unit_info=nM experimental_value=133
compound=O=C(O)c1ccc2c(C3CCCCC3)c3n(c2c1)CCCn1cc(CNC2CCOCC2)c2cccc-3c21 unit_info=nM experimental_value=149
compound=CCN(CC)Cc1cn2c3c(ccc(F)c13)-c1c(C3CCCCC3)c3ccc(C(=O)O)cc3n1CCC2 unit_info=nM experimental_value=119
compound=COc1ccc2c3c1ccn3CCCn1c-2c(C2CCCCC2)c2ccc(C(=O)O)cc21 unit_info=nM experimental_value=211
compound=O=C(O)c1ccc2c(C3CCCCC3)c3n(c2c1)CCCn1cc(CN2CC[C@H](F)C2)c2cccc-3c21 unit_info=nM experimental_value=110
compound="O=C(O)c1ccc2c(C3CCCCC3)c3n(c2c1)CCCn1cc(CN2CCCC(F)C2)c2cccc-3c21 (stereo not drawn)" unit_info=nM experimental_value=109

----------
Quick note: these are pIC50 numbers for system: NS5B (Hepatitis C virus genotype 1b, UniProt Q9WMX2)
pIC50: −log10 of the molar value.
REPORTED METRIC: pIC50

compound="CN1CCC2(C1)C(=O)N1CCCn3c(c(C4CCCCC4)c4ccc(C(=O)O)cc43)-c3cccc2c31 (centres unmarked)" experimental_value=7.52
compound=CC(=O)N[C@@H]1CCN2CCn3c(c(C4CCCCC4)c4ccc(C(=O)O)cc43)-c3cccc1c32 experimental_value=8.77
compound="NC1CCN2CCn3c(c(C4CCCCC4)c4ccc(C(=O)O)cc43)-c3ccc(F)c1c32 (centres unmarked)" experimental_value=8.30
compound=CN(C)C(=O)c1c(CN2CCCC2)c2cccc3c2n1CCCn1c-3c(C2CCCCC2)c2ccc(C(=O)O)cc21 experimental_value=8.22
compound=CC1(C)C(=O)N2CCn3c(c(C4CCCCC4)c4ccc(C(=O)O)cc43)-c3cccc(c32)[C@H]1N experimental_value=7.70
compound=CN(C)C(=O)c1c(CN(C)C(=O)C(C)(C)N2CCCC2)c2cccc3c2n1CCCn1c-3c(C2CCCCC2)c2ccc(C(=O)O)cc21 experimental_value=7.96
compound=N[C@H]1CCN2CCn3c(c(C4CCCCC4)c4ccc(C(=O)O)cc43)-c3cccc1c32 experimental_value=7.99
compound=NCC[C@H]1CCN2CCn3c(c(C4CCCCC4)c4ccc(C(=O)O)cc43)-c3cccc1c32 experimental_value=8.17
compound=CCN(C)Cc1c(C(=O)N(C)C)n2c3c(cccc13)-c1c(C3CCCCC3)c3ccc(C(=O)O)cc3n1CC2 experimental_value=8.40
compound=CCN(C)Cc1c(C(=O)N(C)C)n2c3c(cccc13)-c1c(C3CCCCC3)c3ccc(C(=O)NS(=O)(=O)N(C)C)cc3n1CCC2 experimental_value=8.70
compound=CCN(C)Cc1c(C(=O)NS(=O)(=O)N(C)C)n2c3c(cccc13)-c1c(C3CCCCC3)c3ccc(C(=O)O)cc3n1CCC2 experimental_value=8.10
compound="O=C(O)c1ccc2c(C3CCCCC3)c3n(c2c1)CCN1CCC(N2CCOCC2)c2cccc-3c21 (centres unmarked)" experimental_value=8.69
compound="CCN(CC)C1CCN2CCn3c(c(C4CCCCC4)c4ccc(C(=O)O)cc43)-c3cccc1c32 (centres unmarked)" experimental_value=8.36
compound=CCN(C)Cc1c(C(=O)N2CCCC2)n2c3c(cccc13)-c1c(C3CCCCC3)c3ccc(C(=O)O)cc3n1CCC2 experimental_value=8.52
